# ASSAY_NAME: Inhibition of soybean lipoxygenase assessed as inhibition of sodium linolate conversion to 13-hydroperoxylinoleic acid after 4 mins by spectrophotometry
# Parameters: species or system Glycine max
# DETAILS: read-out: IC50
REPORTED_ENDPOINT: pIC50
Answers are plain numbers, as −log10 of the molar value.

Example cases with answers are listed next.
| MOLECULE | TEST_VALUE |
| --- | --- |
| O=C1N/C(=N\c2nccs2)S/C1=C\c1ccc(Cl)cc1Cl | 3.91 |
| Cc1cnc(/N=C2\NC(=O)/C(=C/c3ccc([N+](=O)[O-])cc3)S2)s1 | 4.10 |
| O=C1N/C(=N\c2nccs2)S/C1=C\c1ccc(Br)cc1 | 4.18 |

Dear reader, for each entry below, please note its pIC50.
1. CN(C)c1ccc(/C=C2\S/C(=N/c3nccs3)NC2=O)cc1
2. O=C1N/C(=N\c2nc(-c3ccccc3)cs2)S/C1=C\c1cccc(Cl)c1
3. Cc1csc(/N=C2\NC(=O)/C(=C/c3ccc(Cl)cc3)S2)n1
4. CC(Cc1ccc(O)c(O)c1)C(C)Cc1ccc(O)c(O)c1 (centres undefined) [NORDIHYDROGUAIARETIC ACID]
5. Cc1ccc(/C=C2\S/C(=N/c3nccs3)NC2=O)cc1
6. O=C1N/C(=N\c2nccs2)S/C1=C\c1cccc(Cl)c1Cl
7. Cc1csc(/N=C2\NC(=O)/C(=C/c3ccccc3Cl)S2)n1
8. COc1ccccc1/C=C1\S/C(=N/c2nccs2)NC1=O

Response line:
[4.02, 4.06, 4.12, 4.49, 4.04, 3.84, 4.10, 4.20]

Dear reader, for each entry below, please note its pIC50.
1. O=C1N/C(=N\c2nc(-c3ccccc3)cs2)S/C1=C\c1ccccc1
2. O=C1N/C(=N\c2nccs2)S/C1=C\c1cccc(F)c1

Response line:
[4.18, 4.05]

Dear reader, for each entry below, please note its pIC50.
1. COc1ccc(OC)c(/C=C2\S/C(=N/c3nccs3)NC2=O)c1
2. O=C1N/C(=N\c2nc(-c3ccccc3)cs2)S/C1=C\c1ccc(Cl)cc1
3. O=C1N/C(=N\c2nccs2)S/C1=C\c1c(Cl)cccc1Cl

Response line:
1. 4.28
2. 4.27
3. 3.86
